Tested on: PC-14
procedure summary: relative viability (nuclei count vs DMSO), 5 days (fraction); higher = more cells survive
cond: first compound 0.1581 µM
Hi there, I'd appreciate the recorded relative viability for every entry that follows.

Q. For the compound CC1(C)CCC(c2ccc(Cl)cc2)=C(CN2CCN(c3ccc(C(=O)NS(=O)(=O)c4ccc(N[C@H](CCN5CCOCC5)CSc5ccccc5)c(S(=O)(=O)C(F)(F)F)c4)cc3)CC2)C1 [Navitoclax] + NC(=O)Nc1cc(-c2cccc(F)c2)sc1C(=O)N[C@H]1CCCNC1 [AZD7762] (partner 0.2 µM) , report relative viability.
A. 0.322

Q. For the compound CC1(C)CCC(c2ccc(Cl)cc2)=C(CN2CCN(c3ccc(C(=O)NS(=O)(=O)c4ccc(N[C@H](CCN5CCOCC5)CSc5ccccc5)c(S(=O)(=O)C(F)(F)F)c4)cc3)CC2)C1 [Navitoclax] + Cc1cc(Nc2cc(N3CCN(C)CC3)nc(Sc3ccc(NC(=O)C4CC4)cc3)n2)n[nH]1 [Tozasertib] (partner 0.1 µM) , report relative viability.
A. 0.553

Q. For the compound CC1(C)CCC(c2ccc(Cl)cc2)=C(CN2CCN(c3ccc(C(=O)NS(=O)(=O)c4ccc(N[C@H](CCN5CCOCC5)CSc5ccccc5)c(S(=O)(=O)C(F)(F)F)c4)cc3)CC2)C1 [Navitoclax] + CC(=O)c1c(C)c2cnc(Nc3ccc(N4CCNCC4)cn3)nc2n(C2CCCC2)c1=O [Palbociclib] (partner 0.5 µM) , report relative viability.
A. 0.528

Q. For the compound CC1(C)CCC(c2ccc(Cl)cc2)=C(CN2CCN(c3ccc(C(=O)NS(=O)(=O)c4ccc(N[C@H](CCN5CCOCC5)CSc5ccccc5)c(S(=O)(=O)C(F)(F)F)c4)cc3)CC2)C1 [Navitoclax] + O=C(CCCCCCC(=O)Nc1ccccc1)NO [Vorinostat] (partner 1 µM) , report relative viability.
A. 0.712

Q. For the compound CC1(C)CCC(c2ccc(Cl)cc2)=C(CN2CCN(c3ccc(C(=O)NS(=O)(=O)c4ccc(N[C@H](CCN5CCOCC5)CSc5ccccc5)c(S(=O)(=O)C(F)(F)F)c4)cc3)CC2)C1 [Navitoclax] + CS(=O)(=O)N1CCN(Cc2cc3nc(-c4cccc5[nH]ncc45)nc(N4CCOCC4)c3s2)CC1 [Pictilisib] (partner 1 µM) , report relative viability.
A. 0.748

Q. For the compound CC1(C)CCC(c2ccc(Cl)cc2)=C(CN2CCN(c3ccc(C(=O)NS(=O)(=O)c4ccc(N[C@H](CCN5CCOCC5)CSc5ccccc5)c(S(=O)(=O)C(F)(F)F)c4)cc3)CC2)C1 [Navitoclax] + Nc1ncn([C@H]2C[C@H](O)[C@@H](CO)O2)c(=O)n1 [Decitabine] (partner 2 µM) , report relative viability.
A. 0.211

----------
Test system: NCI-H2087
procedure summary: relative viability (nuclei count vs DMSO), 5 days (fraction); higher = more cells survive
cond: first compound 0.5 µM
outcome measure: relative viability
Returns: the value as a bare number; no unit string appended.

Q. For the compound CC1(C)CCC(c2ccc(Cl)cc2)=C(CN2CCN(c3ccc(C(=O)NS(=O)(=O)c4ccc(N[C@H](CCN5CCOCC5)CSc5ccccc5)c(S(=O)(=O)C(F)(F)F)c4)cc3)CC2)C1 [Navitoclax] + COc1cc2c(Oc3ccc(NC(=O)C4(C(=O)Nc5ccc(F)cc5)CC4)cc3F)ccnc2cc1OCCCN1CCOCC1 [Foretinib] (partner 0.25 µM) , report relative viability.
A. 1.07

Q. For the compound CC1(C)CCC(c2ccc(Cl)cc2)=C(CN2CCN(c3ccc(C(=O)NS(=O)(=O)c4ccc(N[C@H](CCN5CCOCC5)CSc5ccccc5)c(S(=O)(=O)C(F)(F)F)c4)cc3)CC2)C1 [Navitoclax] + O=C(c1cc(Cc2n[nH]c(=O)c3ccccc23)ccc1F)N1CCN(C(=O)C2CC2)CC1 [Olaparib] (partner 8 µM) , report relative viability.
A. 0.598

Q. For the compound CC1(C)CCC(c2ccc(Cl)cc2)=C(CN2CCN(c3ccc(C(=O)NS(=O)(=O)c4ccc(N[C@H](CCN5CCOCC5)CSc5ccccc5)c(S(=O)(=O)C(F)(F)F)c4)cc3)CC2)C1 [Navitoclax] + N=C(N)NC(=N)NCCc1ccccc1 [Phenformin] (partner 250 µM) , report relative viability.
A. 0.428

----------
Tested on: NCI-H2347
procedure summary: relative viability (nuclei count vs DMSO), 5 days (fraction); higher = more cells survive
cond: first compound 0.8 µM
Labelling: relative viability reported below 0.8 becomes yes; at or above becomes no.

Q. Is it true that relative viability reported for C=C1C(=O)O[C@@H](CCCCCCCC)[C@@H]1C(=O)O [C-75] + Nc1nc2[nH]cc(CCc3ccc(C(=O)N[C@@H](CCC(=O)O)C(=O)O)cc3)c2c(=O)[nH]1 [Pemetrexed] (partner 0.2 µM) is less than 0.8?
A. yes

Q. Is it true that relative viability reported for C=C1C(=O)O[C@@H](CCCCCCCC)[C@@H]1C(=O)O [C-75] + N=C(N)NC(=N)NCCc1ccccc1 [Phenformin] (partner 250 µM) is less than 0.8?
A. yes

Q. Is it true that relative viability reported for C=C1C(=O)O[C@@H](CCCCCCCC)[C@@H]1C(=O)O [C-75] + CC1(C)CCC(c2ccc(Cl)cc2)=C(CN2CCN(c3ccc(C(=O)NS(=O)(=O)c4ccc(N[C@H](CCN5CCOCC5)CSc5ccccc5)c(S(=O)(=O)C(F)(F)F)c4)cc3)CC2)C1 [Navitoclax] (partner 0.5 µM) is less than 0.8?
A. yes

Q. Is it true that relative viability reported for Oc1nc(-c2ccc(C(F)(F)F)cc2)nc2c1CSCC2 [XAV939] + CS(=O)(=O)N1CCN(Cc2cc3nc(-c4cccc5[nH]ncc45)nc(N4CCOCC4)c3s2)CC1 [Pictilisib] (partner 1 µM) is less than 0.8?
A. yes

Q. Is it true that relative viability reported for Oc1nc(-c2ccc(C(F)(F)F)cc2)nc2c1CSCC2 [XAV939] + O=C(CCCCCCC(=O)Nc1ccccc1)NO [Vorinostat] (partner 1 µM) is less than 0.8?
A. yes

Q. Is it true that relative viability reported for C=C1C(=O)O[C@@H](CCCCCCCC)[C@@H]1C(=O)O [C-75] + Cc1nc(NC(=O)N2CCC[C@H]2C(N)=O)sc1-c1ccnc(C(C)(C)C(F)(F)F)c1 [Alpelisib] (partner 2 µM) is less than 0.8?
A. no

----------
Test system: NCI-H647
procedure summary: relative viability (nuclei count vs DMSO), 5 days (fraction); higher = more cells survive
cond: first compound 0.01 µM
Labelling: relative viability reported below 0.4 becomes Criterion met; at or above becomes Criterion not met.

Q. Is it true that relative viability reported for NC(=O)Nc1cc(-c2cccc(F)c2)sc1C(=O)N[C@H]1CCCNC1 [AZD7762] + Cc1cc(Nc2cc(N3CCN(C)CC3)nc(Sc3ccc(NC(=O)C4CC4)cc3)n2)n[nH]1 [Tozasertib] (partner 0.1 µM) is less than 0.4?
A. Criterion met

Q. Is it true that relative viability reported for NC(=O)Nc1cc(-c2cccc(F)c2)sc1C(=O)N[C@H]1CCCNC1 [AZD7762] + CC(=O)c1c(C)c2cnc(Nc3ccc(N4CCNCC4)cn3)nc2n(C2CCCC2)c1=O [Palbociclib] (partner 0.5 µM) is less than 0.4?
A. Criterion not met

Q. Is it true that relative viability reported for NC(=O)Nc1cc(-c2cccc(F)c2)sc1C(=O)N[C@H]1CCCNC1 [AZD7762] + Nc1nc2[nH]cc(CCc3ccc(C(=O)N[C@@H](CCC(=O)O)C(=O)O)cc3)c2c(=O)[nH]1 [Pemetrexed] (partner 0.2 µM) is less than 0.4?
A. Criterion met

Q. Is it true that relative viability reported for NC(=O)Nc1cc(-c2cccc(F)c2)sc1C(=O)N[C@H]1CCCNC1 [AZD7762] + C[C@@H](Oc1cc(-c2cnn(C3CCNCC3)c2)cnc1N)c1c(Cl)ccc(F)c1Cl [Crizotinib] (partner 1 µM) is less than 0.4?
A. Criterion not met

Q. Is it true that relative viability reported for NC(=O)Nc1cc(-c2cccc(F)c2)sc1C(=O)N[C@H]1CCCNC1 [AZD7762] + CS(=O)(=O)CCNCc1ccc(-c2ccc3ncnc(Nc4ccc(OCc5cccc(F)c5)c(Cl)c4)c3c2)o1 [Lapatinib] (partner 2 µM) is less than 0.4?
A. Criterion not met

Q. Is it true that relative viability reported for NC(=O)Nc1cc(-c2cccc(F)c2)sc1C(=O)N[C@H]1CCCNC1 [AZD7762] + CC(C)C[C@H](NC(=O)[C@H](Cc1ccccc1)NC(=O)c1cnccn1)B(O)O [Bortezomib] (partner 0.002 µM) is less than 0.4?
A. Criterion not met

----------
Tested on: NCI-H358
procedure summary: relative viability (nuclei count vs DMSO), 5 days (fraction); higher = more cells survive
cond: first compound 0.1265 µM
outcome measure: relative viability
Returns: the value as a bare number; no unit string appended.

Q. For the molecule O=C(O)c1ccc(-c2c[nH]c3ncc(-c4ccccc4)cc23)cc1C1CCCC1 + COc1cccc2cc(-c3nc([C@H]4CC[C@H](C(=O)O)CC4)n4ncnc(N)c34)[nH]c12 [OSI-027] (partner 0.5 µM) , report relative viability.
A. 0.933

Q. For the molecule O=C(O)c1ccc(-c2c[nH]c3ncc(-c4ccccc4)cc23)cc1C1CCCC1 + Cc1nc(NC(=O)N2CCC[C@H]2C(N)=O)sc1-c1ccnc(C(C)(C)C(F)(F)F)c1 [Alpelisib] (partner 2 µM) , report relative viability.
A. 0.904

Q. For the molecule O=C(O)c1ccc(-c2c[nH]c3ncc(-c4ccccc4)cc23)cc1C1CCCC1 + CS(=O)(=O)N1CCN(Cc2cc3nc(-c4cccc5[nH]ncc45)nc(N4CCOCC4)c3s2)CC1 [Pictilisib] (partner 1 µM) , report relative viability.
A. 0.364

Q. For the molecule O=C(O)c1ccc(-c2c[nH]c3ncc(-c4ccccc4)cc23)cc1C1CCCC1 + CS(=O)(=O)CCNCc1ccc(-c2ccc3ncnc(Nc4ccc(OCc5cccc(F)c5)c(Cl)c4)c3c2)o1 [Lapatinib] (partner 2 µM) , report relative viability.
A. 0.447
